Here, each record is paired with measured IC50 data.
MEASURED ON: Recombinant JAK1 (Amino acids 850-1154) (Homo sapiens, UniProt P23458)
Construct: Recombinant JAK1 (Amino acids 850-1154; NM_002227.2)
Sequence (P23458 850-1154): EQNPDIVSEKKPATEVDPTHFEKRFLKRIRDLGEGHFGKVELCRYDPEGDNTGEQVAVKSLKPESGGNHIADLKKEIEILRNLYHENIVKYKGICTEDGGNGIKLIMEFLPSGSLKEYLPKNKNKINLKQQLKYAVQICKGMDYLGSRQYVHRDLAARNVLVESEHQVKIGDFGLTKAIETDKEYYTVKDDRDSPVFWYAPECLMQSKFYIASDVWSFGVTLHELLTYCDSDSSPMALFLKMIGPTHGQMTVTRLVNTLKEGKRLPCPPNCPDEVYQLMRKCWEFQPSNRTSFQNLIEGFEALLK
ASSAY METHOD TEXT: Kinase-Glo Luminescent Kinase Assay, recombinant JAK1
EXPERIMENTAL CONTEXT: 200 μg/ml Poly Glu-Tyr (4:1), ATP 1 uM, 90 min room temperature, luminescence

Consider the worked cases shown below.
COMPOUND	MEASURED ON	IC50
O=C(CC(F)(F)F)N1CCCC(c2ncnc3cnc4[nH]ccc4c23)C1 (centres unmarked)	Recombinant JAK1 (Amino acids 850-1154) (Homo sapiens, UniProt P23458)	1 to 20 nM
CC(C)NC(=O)C1CCCN(c2ccnc3cnc4[nH]ccc4c23)C1 (centres unmarked)	Recombinant JAK1 (Amino acids 850-1154) (Homo sapiens, UniProt P23458)	> 20 nM
O=C(NCC(F)(F)F)C1CCN(c2ccnc3cnc4[nH]ccc4c23)CC1	Recombinant JAK1 (Amino acids 850-1154) (Homo sapiens, UniProt P23458)	> 20 nM
O=C(C1CC1)N1CCCC(c2ncnc3cnc4[nH]ccc4c23)C1 (centres unmarked)	Recombinant JAK1 (Amino acids 850-1154) (Homo sapiens, UniProt P23458)	> 20 nM
O=S(=O)(C1CC1)N1CCCC(c2ncnc3cnc4[nH]ccc4c23)C1 (centres unmarked)	Recombinant JAK1 (Amino acids 850-1154) (Homo sapiens, UniProt P23458)	> 20 nM
N#CCC(=O)N1CCCC(c2ncnc3cnc4[nH]ccc4c23)C1 (centres unmarked)	Recombinant JAK1 (Amino acids 850-1154) (Homo sapiens, UniProt P23458)	1 to 20 nM
N#CCC(=O)N1CC[C@H](c2ccnc3cnc4[nH]ccc4c23)C1 [Ex. 14A]	Recombinant JAK1 (Amino acids 850-1154) (Homo sapiens, UniProt P23458)	> 20 nM
CS(=O)(=O)NC1CCCN(c2ccnc3cnc4[nH]ccc4c23)C1 (centres unmarked)	Recombinant JAK1 (Amino acids 850-1154) (Homo sapiens, UniProt P23458)	> 20 nM

Param readout = IC50; param system = Recombinant JAK1 (Amino acids 850-1154) (Homo sapiens, UniProt P23458); param query = `N#CCC(=O)N1CCN(c2ccnc3cnc4[nH]ccc4c23)CC1` ; response: value > 20 nM

API: value(readout=IC50, system=Recombinant JAK1 (Amino acids 850-1154) (Homo sapiens, UniProt P23458)) for record CS(=O)(=O)N1CCCC(c2ccnc3cnc4[nH]ccc4c23)C1 (centres unmarked) 1 to 20 nM

What is its IC50 for Recombinant JAK1 (Amino acids 850-1154) (Homo sapiens, UniProt P23458)? Entry: `O=C(CC(F)(F)F)N1CCN(c2ccnc3cnc4[nH]ccc4c23)CC1` > 20 nM

Query IC50 on Recombinant JAK1 (Amino acids 850-1154) (Homo sapiens, UniProt P23458) for `CC(C)(C)OC(=O)N1CCN(c2ccnc3cnc4[nH]ccc4c23)CC1` > 20 nM

Report IC50 for CNC(=O)N1CCCC(c2ccnc3cnc4[nH]ccc4c23)C1 (centres unmarked) tested on Recombinant JAK1 (Amino acids 850-1154) (Homo sapiens, UniProt P23458). > 20 nM

Hi! What's the reported IC50 for `N#CCC(=O)N1CCC[C@H](c2ccnc3cnc4[nH]ccc4c23)C1` on Recombinant JAK1 (Amino acids 850-1154) (Homo sapiens, UniProt P23458)? > 20 nM

I'm curious: which IC50 was measured for O=C(CC(F)(F)F)N1CCC(c2ccnc3cnc4[nH]ccc4c23)C1 (centres unmarked) tested on Recombinant JAK1 (Amino acids 850-1154) (Homo sapiens, UniProt P23458)? 1 to 20 nM

Under Recombinant JAK1 (Amino acids 850-1154) (Homo sapiens, UniProt P23458): IC50 value of `CC(C)NC(=O)C1CCN(c2ccnc3cnc4[nH]ccc4c23)CC1` ? > 20 nM

Lookup: IC50 / Recombinant JAK1 (Amino acids 850-1154) (Homo sapiens, UniProt P23458) / CC1CCC(C(=O)NC2CC2)CN1c1ccnc2cnc3[nH]ccc3c12 (single isomer, unassigned) [Ex. 88A] > 20 nM

IC50 of O=C(C1CC1)N1CCCC(c2ccnc3cnc4[nH]ccc4c23)C1 (centres unmarked) on Recombinant JAK1 (Amino acids 850-1154) (Homo sapiens, UniProt P23458)? 1 to 20 nM

Given the entry CCNC(=O)C1CCCN(c2ccnc3cnc4[nH]ccc4c23)C1 (centres unmarked) , what IC50 was observed with Recombinant JAK1 (Amino acids 850-1154) (Homo sapiens, UniProt P23458)? > 20 nM

Give IC50 (Recombinant JAK1 (Amino acids 850-1154) (Homo sapiens, UniProt P23458)) of the following compound: c1cc(N2CCCC(OCC3CC3)C2)c2c(cnc3[nH]ccc32)n1 (centres unmarked) 1 to 20 nM

Form entry - test system: Recombinant JAK1 (Amino acids 850-1154) (Homo sapiens, UniProt P23458); read-out: IC50; compound: CC(C)(C)OC(=O)N1CCC(c2ccnc3cnc4[nH]ccc4c23)C1 (centres unmarked) 1 to 20 nM

Provide value of IC50 for this record tested with Recombinant JAK1 (Amino acids 850-1154) (Homo sapiens, UniProt P23458): `N#CCC(=O)N1CCC[C@@H](c2ccnc3cnc4[nH]ccc4c23)C1` 1 to 20 nM

Quick check: IC50 on Recombinant JAK1 (Amino acids 850-1154) (Homo sapiens, UniProt P23458), item O=S(=O)(N1CCC(c2ccnc3cnc4[nH]ccc4c23)C1)C(F)(F)F (centres unmarked) ? > 20 nM

Record O=C(NCC(F)(F)F)C1CCCN(c2ccnc3cnc4[nH]ccc4c23)C1 (centres unmarked) : what is its IC50 with Recombinant JAK1 (Amino acids 850-1154) (Homo sapiens, UniProt P23458)? 1 to 20 nM

Param readout = IC50; param system = Recombinant JAK1 (Amino acids 850-1154) (Homo sapiens, UniProt P23458); param query = O=C(CC(F)(F)F)NC1CCCN(c2ccnc3cnc4[nH]ccc4c23)C1 (centres unmarked) ; response: value > 20 nM

Recombinant JAK1 (Amino acids 850-1154) (Homo sapiens, UniProt P23458) / IC50 / N#CCC(=O)N1CC[C@@H](c2ccnc3cnc4[nH]ccc4c23)C1 [Ex. 14B] : value? 1 to 20 nM

Form field - read-out: IC50; system: Recombinant JAK1 (Amino acids 850-1154) (Homo sapiens, UniProt P23458); submitted item: CCC(=O)N1CCCC(c2ncnc3cnc4[nH]ccc4c23)C1 (centres unmarked) > 20 nM

Form: Entry = CC(C)NC(=O)N1CCCC(c2ncnc3cnc4[nH]ccc4c23)C1 (centres unmarked) | System = Recombinant JAK1 (Amino acids 850-1154) (Homo sapiens, UniProt P23458) | IC50 = ____ > 20 nM

Find IC50 (Recombinant JAK1 (Amino acids 850-1154) (Homo sapiens, UniProt P23458)) for the entry CC(C)CS(=O)(=O)N1CCCC(c2ccnc3cnc4[nH]ccc4c23)C1 (centres unmarked) 1 to 20 nM
